So I've got a bunch of variants here, and I need their self-cleavage kobs at 10000 uM GlcN6P values.
B1: glmS ribozyme (parent)
chain: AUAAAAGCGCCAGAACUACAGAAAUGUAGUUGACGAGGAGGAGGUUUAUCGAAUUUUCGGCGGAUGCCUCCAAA

# Variants of: B1
# assay.summary: self-cleavage kobs at 10000 uM GlcN6P; higher = faster cleavage; RNA array
# particulars: with glucosamine-6-phosphate
Variants at the floor of the assay were thinned out.
Answers are plain numbers, in s⁻¹.

Hi, could you look up self-cleavage kobs at 10000 uM GlcN6P for each item in my list?
1. G26U C50G A52C U56G G66C C67U C71U
2. C16A C50G C68U
3. C67A C71U
4. A15C U55A
5. G29A G66U
6. U30G C71U
7. U31A C68U

Out:
1. 0.000101
2. 0.000227
3. 0.00183
4. 0.0054
5. 0.00015
6. 0.00769
7. 0.00105

Hi, could you look up self-cleavage kobs at 10000 uM GlcN6P for each item in my list?
1. U31G A48U
2. A14G A42C
3. A15U C16U
4. A53U U56A

Out:
1: 5.93e-05; 2: 2.99e-05; 3: 0.00172; 4: 0.00667

Hi, could you look up self-cleavage kobs at 10000 uM GlcN6P for each item in my list?
1. A12U C50G
2. U45C U65G C67U
3. G66U C70A
4. U56G C58A
5. C16G U55A C67U C71A

Out:
1. 0.000147
2. 0.000112
3. 6.04e-05
4. 0.000556
5. 3.71e-05
